target-under-test: HLA-A*26:02
assay-explanation: IEDB peptide-MHC binding, purified MHC/competitive/fluorescence; filed as Kd, often an IC50 or EC50 that approximates it; bounds were set here for any values at or beyond the usual limits of such assays
protocol-conditions: source organism: Vibrio parahaemolyticus K5030
pKd: −log10 of the molar value.

# seq-text, pKd
measured = [
    ("DMRKRIEAF", 8.14),
]

* * *

target-under-test: HLA-A*02:01
assay-explanation: IEDB peptide-MHC binding, purified MHC/competitive/fluorescence; filed as Kd, often an IC50 or EC50 that approximates it; bounds were set here for any values at or beyond the usual limits of such assays
protocol-conditions: source organism: Zaire ebolavirus
Measured Kd values are reported for all entries that follow.

# seq-text, Kd
rows = [
    ("TGIVSSMHY", "≥ 20 µM"),
    ("ATEDPSSGY", "≥ 20 µM"),
]

* * *

Recorded pKd by entry
target-under-test: HLA-A*03:01
assay-explanation: IEDB peptide-MHC binding, purified MHC/competitive/radioactivity; filed as Kd, often an IC50 or EC50 that approximates it; bounds were set here for any values at or beyond the usual limits of such assays
protocol-conditions: source organism: Mammarenavirus guanaritoense
pKd: −log10 of the molar value.
result-type: pKd

# seq-text, numeric-readout
records = [
    ("SIVLHIQLEH", 5.84),
    ("KTAVNMLTH", 8.00),
]

* * *

# Kd per record follows
target-under-test: HLA-B*27:05
assay-explanation: IEDB peptide-MHC binding, purified MHC/direct/fluorescence; filed as Kd, often an IC50 or EC50 that approximates it; bounds were set here for any values at or beyond the usual limits of such assays
protocol-conditions: source organism: Yersinia pestis Nepal516

# seq-text, target-under-test, Kd
data = [
    ("AFASLQDML", "HLA-B*27:05", "≥ 20 µM"),
    ("YLHRDIFDI", "HLA-B*27:05", "≥ 20 µM"),
]

* * *

target-under-test: HLA-A*33:01
assay-explanation: IEDB peptide-MHC binding, purified MHC/competitive/radioactivity; filed as Kd, often an IC50 or EC50 that approximates it; bounds were set here for any values at or beyond the usual limits of such assays
protocol-conditions: source organism: Mammarenavirus tacaribeense
pKd: −log10 of the molar value.
result-type: pKd

# seq-text, result-type, numeric-readout
rows = [
    ("QYIHCFRKPH", "pKd", 6.85),
]

* * *

target-under-test: HLA-B*08:02
assay-explanation: IEDB peptide-MHC binding, purified MHC/direct/fluorescence; filed as Kd, often an IC50 or EC50 that approximates it; bounds were set here for any values at or beyond the usual limits of such assays
protocol-conditions: source organism: Influenza A virus(A/swine/Shandong/fZC/2003(H9N2))
result-type: Kd

# seq-text, result-type, result
measured = [
    ("TYQWIIRNW", "Kd", "≥ 20 µM"),
]

* * *

Entries and their pKd values follow.
target-under-test: HLA-A*30:02
assay-explanation: IEDB peptide-MHC binding, purified MHC/competitive/radioactivity; filed as Kd, often an IC50 or EC50 that approximates it; bounds were set here for any values at or beyond the usual limits of such assays
protocol-conditions: source organism: Dengue virus 2 Jamaica/1409/1983
pKd: −log10 of the molar value.

# seq-text, target-under-test, lt-gt-eq, pKd
data = [
    ("ALLLLVAHY", "HLA-A*30:02", "≤", 4.11),
    ("AKQPATLRKY", "HLA-A*30:02", "=", 5.28),
    ("GVVTRSGAY", "HLA-A*30:02", "=", 8.03),
]
